Attribution: ChEMBL document CHEMBL3120153

- tested.on: NS3 protease (Hepatitis C virus subtype 1b, UniProt Q0ZMF1, D168Y)
- experimental.details: Inhibition of Hepatitis C virus genotype 1b NS3/4A protease D168Y mutant assessed as substrate cleavage using Ac-C(Eu)DDMEEAbu(COO)ASK(QSY7)-amide as substrate incubated for 30 mins prior to substrate addition by time-resolved fluorescence assay
quantity.measured: pIC50
One number for each entry, as −log10 of the molar value.

Study these solved cases before continuing.
[[record]]
molecule_smiles = "C=C[C@@H]1C[C@]1(NC(=O)[C@@H]1C[C@@H]2CN1C(=O)[C@H](C(C)(C)C)NC(=O)O[C@@H]1C[C@H]1CCCCCc1c(nc3ccccc3c1O[C@H]1C[C@H]3CC[C@@H](C1)N3CC)O2)C(=O)NS(=O)(=O)C1(C)CC1"
quantity_measured = "pIC50"
recorded_measurement = 10.40

[[record]]
molecule_smiles = "C=C[C@@H]1C[C@]1(NC(=O)[C@@H]1C[C@@H]2CN1C(=O)[C@H](C1CCCCC1)NC(=O)O[C@@H]1C[C@H]1CCCCCc1c(nc3ccccc3c1OC1CCN(CCF)CC1)O2)C(=O)NS(=O)(=O)C1(C)CC1"
quantity_measured = "pIC50"
recorded_measurement = 8.89

[[record]]
molecule_smiles = "C=C[C@@H]1C[C@]1(NC(=O)[C@@H]1C[C@@H]2CN1C(=O)[C@H](C1CCCCC1)NC(=O)O[C@@H]1C[C@H]1CCCCCc1c(nc3ccccc3c1OC1CCOCC1)O2)C(=O)NS(=O)(=O)C1(C)CC1"
quantity_measured = "pIC50"
recorded_measurement = 8.68


Next:
[in] Missing value: pIC50, NS3 protease (Hepatitis C virus subtype 1b, UniProt Q0ZMF1, D168Y), entry `C=C[C@@H]1C[C@]1(NC(=O)[C@@H]1C[C@@H]2CN1C(=O)[C@H](C1CCCCC1)NC(=O)O[C@@H]1C[C@H]1CCCCCc1c(nc3ccccc3c1OC1CCN(CC3CC3)CC1)O2)C(=O)NS(=O)(=O)C1(C)CC1` . Fill in?
[out] 9.96
